system under test: T1, L-plastin EF construct (EF-hand headpiece domain, H5 region omitted) (human)
T1 construct: human L-plastin (LPL), EF construct: the two N-terminal EF-hand motifs (helices 1-4, residues 8-79) with the H5 region omitted; holds Cys42; 15N-labelled in the NMR experiment; immobilised by Cys42 in SPR; also called LPL-EF; EF domain of LPL; source: E. coli BL21 (DE3), purified (IMAC, His-tag cleaved with TEV protease); not shown: His-tag, N-terminal, cleaved
procedure summary: SPR; EF construct immobilised by its sole cysteine (Cys42) on a CM5 chip by thiol coupling; peptides injected; BIAcore X100; 10 mM Tris-HCl pH 7.5, 150 mM KCl, 1 mM CaCl2, 0.005% Tween-20; 30 uL/min, contact 1 min, 25 °C
assay setup: both partners purified
assay readout: Kd

binder="AKSKWKQAFNATAVVRHMRKLQ (Limits are not given; 299-320 is the conventional 22-residue CaMKI calmodulin-binding peptide. Terminal modifications are not stated.) [CaMKI peptide (CaM-binding peptide)]" assay_readout=Kd reported="3.27 µM"
